assayed system: recombinant human HPK1 (Homo sapiens (Human))
method summary: HPK1 kinase assay (ADP-Glo)
applied conditions: 25 μM ATP, MBP substrate
outcome measure: IC50

IC50 of O=C(Nc1cc2cc(-c3c(Cl)c(F)c(CF)c4[nH]ncc34)ccn2n1)[C@@H]1C[C@@H]1F [Example 634] on recombinant human HPK1 (Homo sapiens (Human))?
< 100 nM

IC50 of CC(Nc1c(F)c(Cl)c(-c2ccn3nc(NC(=O)[C@@H]4C[C@@H]4F)cc3c2)c2cn[nH]c12)C(F)F (stereo partly shown) [Example 657] on recombinant human HPK1 (Homo sapiens (Human))?
< 100 nM

IC50 of O=C(Nc1nc2ccc(-c3c(Cl)c(F)cc4[nH]ncc34)cc2s1)[C@@H]1C[C@@H]1F [Example 41] on recombinant human HPK1 (Homo sapiens (Human))?
101 to 500 nM

Next:
IC50 of O=C(Nc1cc2cc(-c3c(Cl)c(F)c(N4CCSCC4)c4[nH]ncc34)ccn2n1)[C@@H]1C[C@@H]1F [Example 631] on recombinant human HPK1 (Homo sapiens (Human))?
< 100 nM

IC50 of CN(C)c1ccc(-c2ccn3nc(NC(=O)[C@@H]4C[C@@H]4F)cc3c2)c2cn[nH]c12 [Example 595] on recombinant human HPK1 (Homo sapiens (Human))?
101 to 500 nM

IC50 of CN(Cc1cccnc1)c1c(F)c(Cl)c(-c2ccc3nc(NC(=O)[C@@H]4C[C@@H]4F)cn3c2)c2cn[nH]c12 [Example 349] on recombinant human HPK1 (Homo sapiens (Human))?
< 100 nM

IC50 of O=C(Nc1cc2cc(-c3c(C(F)F)ccc4[nH]ncc34)ccn2n1)[C@@H]1C[C@@H]1F [Example 465] on recombinant human HPK1 (Homo sapiens (Human))?
< 100 nM

====

Overview of reported pIC50 across a group of molecules:
assayed system: recombinant human HPK1 (Homo sapiens (Human), UniProt Q92918)
Sequence (Q92918 whole entry): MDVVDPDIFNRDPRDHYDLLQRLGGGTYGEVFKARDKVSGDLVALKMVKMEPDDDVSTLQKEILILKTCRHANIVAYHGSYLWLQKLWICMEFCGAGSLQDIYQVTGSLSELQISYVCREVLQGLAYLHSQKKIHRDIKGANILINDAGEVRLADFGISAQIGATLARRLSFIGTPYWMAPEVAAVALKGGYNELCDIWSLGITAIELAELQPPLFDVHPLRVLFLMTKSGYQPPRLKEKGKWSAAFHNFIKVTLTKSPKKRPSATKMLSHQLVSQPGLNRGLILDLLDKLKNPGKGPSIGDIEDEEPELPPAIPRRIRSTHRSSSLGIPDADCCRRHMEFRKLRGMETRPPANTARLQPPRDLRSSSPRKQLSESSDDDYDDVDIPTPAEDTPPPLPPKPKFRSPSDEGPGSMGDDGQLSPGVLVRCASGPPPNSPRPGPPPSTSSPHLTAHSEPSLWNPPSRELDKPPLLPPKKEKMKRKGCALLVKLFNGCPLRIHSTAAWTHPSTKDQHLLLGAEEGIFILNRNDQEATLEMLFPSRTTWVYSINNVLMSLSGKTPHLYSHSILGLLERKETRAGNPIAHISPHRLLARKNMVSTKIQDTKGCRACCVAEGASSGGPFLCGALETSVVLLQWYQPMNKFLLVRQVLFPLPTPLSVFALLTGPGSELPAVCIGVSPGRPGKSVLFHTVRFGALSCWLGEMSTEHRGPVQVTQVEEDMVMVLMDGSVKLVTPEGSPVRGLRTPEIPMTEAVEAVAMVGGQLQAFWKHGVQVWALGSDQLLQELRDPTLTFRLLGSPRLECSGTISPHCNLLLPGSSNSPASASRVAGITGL
method summary: HPK1 kinase assay (ADP-Glo)
applied conditions: 25 μM ATP, MBP substrate
pIC50: −log10 of the molar value.

Need pIC50, item "CCOc1c(F)c(CC)c(-c2ccc3nc(NC(=O)[C@@H]4C[C@@H]4F)cn3c2)c2cn[nH]c12"
> 7.00

Need pIC50, item "CCc1c(F)c(N(C)C)c2[nH]ncc2c1-c1ccc2nc(NC(=O)[C@@H]3C[C@@H]3F)sc2c1"
> 7.00

Need pIC50, item "CC(=O)c1c(F)c(Cl)c(-c2ccc3nc(NC(=O)[C@@H]4C[C@@H]4F)sc3c2)c2cn[nH]c12"
6.30 to 7.00

Need pIC50, item "CC(C)c1c(F)c(Cl)c(-c2ccc3nc(NC(=O)[C@@H]4C[C@@H]4F)cn3c2)c2cn[nH]c12"
> 7.00

Need pIC50, item "CNC(=O)c1c(F)c(C)c(-c2ccn3nc(NC(=O)[C@@H]4C[C@@H]4F)cc3c2)c2cn[nH]c12"
6.30 to 7.00

Need pIC50, item "CC(=O)c1c(F)c(Cl)c(-c2ccn3nc(NC(=O)[C@@H]4C[C@@H]4F)cc3c2)c2cn[nH]c12"
> 7.00

Need pIC50, item "COc1cc(C)c(-c2ccc3nc(NC(=O)[C@@H]4C[C@@H]4F)sc3c2)c2cn[nH]c12"
> 7.00
